# Protocol: Cmax in wild type FVB mouse brain at 10 mg/kg, po by LC-MS analysis
# Type: ADME, organism-based
# Set-up: dose 10 mg/kg, route oral
Measured metric: Cmax (nM)
Report only the number, with the unit nM understood.

Answered cases to consult:
test_smiles=Fc1ccc(CN2CCN(c3ccc(-c4nc5ccccc5o4)cc3)CC2)cn1 measured_metric=Cmax measured=400
test_smiles=c1cncc(CN2CCN(c3ccc(-c4nc5ccccc5s4)cc3)CC2)c1 measured_metric=Cmax measured=3000
test_smiles=COc1ccc(CN2CCN(c3ccc(-c4nc5ccccc5o4)cc3)CC2)cn1 measured_metric=Cmax measured=1600

For the next question, use this compound.
Task item: Dear colleague, I am looking for the recorded Cmax of the following compound: `c1cncc(CN2CCN(c3ccc(-c4nc5ccccc5o4)cc3)CC2)c1`
Reply: 3600
